Numbers sourced from patent US4396543A.

- assayInfo: toxicity test, LD50
- recordedConditions: mouse, in vivo, iv; administered intravenously; read-out: LD50 (mg/kg) in Mice
I'd appreciate it if you could supply LD50 values for the items below.
Your answer should be a plain number; it is taken to be in mg/kg.

Lab book: LD50 of CCCCCCCCCCCC(=O)N[C@H](Cc1ccccc1)C(=O)N[C@@H](Cc1c[nH]c2ccccc12)C(=O)N[C@H](CC(N)=O)C(=O)N[C@@H](CC(=O)O)C(=O)N[C@@H]1C(=O)NCC(=O)N[C@@H](CCCN)C(=O)N[C@@H](CC(=O)O)C(=O)N[C@H](C)C(=O)N[C@@H](CC(=O)O)C(=O)NCC(=O)N[C@H](CO)C(=O)N[C@@H]([C@H](C)CC(=O)O)C(=O)N[C@@H](CC(=O)c2ccccc2N)C(=O)O[C@@H]1C [Compound 1] noted as 250

Lab book: LD50 of CCCCCCCCCCCC(=O)Nc1cc(Cl)cc(C(=O)N[C@@H](Cc2c[nH]c3ccccc23)C(=O)N[C@H](CC(N)=O)C(=O)N[C@@H](CC(=O)O)C(=O)N[C@@H]2C(=O)NCC(=O)N[C@@H](CCCN)C(=O)N[C@@H](CC(=O)O)C(=O)N[C@H](C)C(=O)N[C@@H](CC(=O)O)C(=O)NCC(=O)N[C@H](CO)C(=O)N[C@@H]([C@H](C)CC(=O)O)C(=O)N[C@@H](CC(=O)c3ccccc3N)C(=O)O[C@@H]2C)c1Cl [Compound 7] noted as 200

Lab book: LD50 of CCCCCCCCCCCC(=O)NCCCCCCCCCCC(=O)N[C@@H](Cc1c[nH]c2ccccc12)C(=O)N[C@H](CC(N)=O)C(=O)N[C@@H](CC(=O)O)C(=O)N[C@@H]1C(=O)NCC(=O)N[C@@H](CCCN)C(=O)N[C@@H](CC(=O)O)C(=O)N[C@H](C)C(=O)N[C@@H](CC(=O)O)C(=O)NCC(=O)N[C@H](CO)C(=O)N[C@@H]([C@H](C)CC(=O)O)C(=O)N[C@@H](CC(=O)c2ccccc2N)C(=O)O[C@@H]1C [Compound 3] noted as 600

Lab book: LD50 of CCCCCCCC(=O)N[C@@H](Cc1ccccc1)C(=O)N[C@@H](Cc1c[nH]c2ccccc12)C(=O)N[C@H](CC(N)=O)C(=O)N[C@@H](CC(=O)O)C(=O)N[C@@H]1C(=O)NCC(=O)N[C@@H](CCCN)C(=O)N[C@@H](CC(=O)O)C(=O)N[C@H](C)C(=O)N[C@@H](CC(=O)O)C(=O)NCC(=O)N[C@H](CO)C(=O)N[C@@H]([C@H](C)CC(=O)O)C(=O)N[C@@H](CC(=O)c2ccccc2N)C(=O)O[C@@H]1C [Compound 17] noted as 450

* * *

- assayInfo: toxicity test, LD50
- recordedConditions: mouse, in vivo, iv; administered intravenously; read-out: LD50 (mg/kg) in Mice
I'd appreciate it if you could supply LD50 values for the items below.

Lab book: LD50 of CCCCCCC(=O)NCCCCCCCCCCC(=O)N[C@@H](Cc1c[nH]c2ccccc12)C(=O)N[C@H](CC(N)=O)C(=O)N[C@@H](CC(=O)O)C(=O)N[C@@H]1C(=O)NCC(=O)N[C@@H](CCCN)C(=O)N[C@@H](CC(=O)O)C(=O)N[C@H](C)C(=O)N[C@@H](CC(=O)O)C(=O)NCC(=O)N[C@H](CO)C(=O)N[C@@H]([C@H](C)CC(=O)O)C(=O)N[C@@H](CC(=O)c2ccccc2N)C(=O)O[C@@H]1C [Compound 14] noted as > 600 mg/kg

Lab book: LD50 of CCCCCC(=O)N[C@@H](Cc1c[nH]c2ccccc12)C(=O)NCCC[C@@H]1NC(=O)CNC(=O)[C@@H](NC(=O)[C@H](CC(=O)O)NC(=O)[C@@H](CC(N)=O)NC(=O)[C@H](Cc2c[nH]c3ccccc23)NC(=O)CCCCCCCCC(C)CC)[C@@H](C)OC(=O)[C@H](CC(=O)c2ccccc2N)NC(=O)[C@H]([C@H](C)CC(=O)O)NC(=O)[C@@H](CO)NC(=O)CNC(=O)[C@H](CC(=O)O)NC(=O)[C@@H](C)NC(=O)[C@H](CC(=O)O)NC1=O (stereo partly drawn) [Compound 29] noted as 37.5 mg/kg

Lab book: LD50 of CCCCCCCCCCCC(=O)Nc1ccc(C(=O)N[C@@H](Cc2c[nH]c3ccccc23)C(=O)N[C@H](CC(N)=O)C(=O)N[C@@H](CC(=O)O)C(=O)N[C@@H]2C(=O)NCC(=O)N[C@@H](CCCN)C(=O)N[C@@H](CC(=O)O)C(=O)N[C@H](C)C(=O)N[C@@H](CC(=O)O)C(=O)NCC(=O)N[C@H](CO)C(=O)N[C@@H]([C@H](C)CC(=O)O)C(=O)N[C@@H](CC(=O)c3ccccc3N)C(=O)O[C@@H]2C)cc1 [Compound 4] noted as > 300 mg/kg
